# Experimental protocol: solvent given as SMILES
# Settings: in Cc1ccccc1

# Compound, Output unit, absorption maximum
measured = [
    ("CCCCOC(=O)c1cc(Cl)c2c3c(Cl)cc4c5c(cc(Cl)c(c6c(Oc7ccc(C(=O)OC)cc7)cc(C(=O)OCCCC)c1c26)c53)C(=O)N(c1c(C(C)C)cccc1C(C)C)C4=O", "nm", 507),
    ("Cc1cc(C)c(B(c2ccc(-n3c4ccccc4c4ccccc43)cc2)c2c(C)cc(C)cc2C)c(C)c1", "nm", 360),
    ("c1ccc(-c2nc(-c3ccccc3)nc(-c3ccc(-n4c5ccccc5c5ccccc54)cc3)n2)cc1", "nm", 364),
    ("CCCCCCCCN1c2ccc(C#Cc3ccc(C(F)(F)F)cc3)cc2Sc2cc(C=O)ccc21", "nm", 381.99),
    ("CC1(C)c2ccccc2N(c2ccc3c(c2)c2cc(N4c5ccccc5C(C)(C)c5ccccc54)ccc2c2nc(C#N)c(C#N)nc32)c2ccccc21", "nm", 464),
    ("CCn1c2ccccc2c2cc(C#Cc3cc(C#Cc4ccc5c(c4)c4ccccc4n5CC)nc(C#N)n3)ccc21", "nm", 410),
    ("CC1=[N+]2C(=C(c3c4ccccc4c(-c4ccccc4)c4ccccc34)c3ccc(C)n3[B-]2(F)F)C=C1", "nm", 519),
    ("COc1ccc(N(c2ccc(OC)cc2)c2ccc3c4cccc5c(N(c6ccc(OC)cc6)c6ccc(OC)cc6)ccc(c6cccc2c63)c54)cc1", "nm", 519),
    ("c1ccc(N2c3ccc4ccccc4c3-c3c4ccccc4nc[n+]3[B-]2(c2ccccc2)c2ccccc2)cc1", "nm", 539),
    ("COc1ccc(C(=O)/C=C/c2ccc(N(C)C)cc2)cc1OC", "nm", 404),
    ("CC(C)(C)c1ccc2c(c1)c1cc(C(C)(C)C)ccc1n2-c1ccc(S(=O)(=O)c2ccc(-n3c4ccc(C(C)(C)C)cc4c4cc(C(C)(C)C)ccc43)cn2)nc1", "nm", 365.77),
    ("CN(C)c1ccc2nc(/C=C/c3ccccc3)c(=O)oc2c1", "nm", 459.5),
    ("N#Cc1nc2c3ccc(-c4ccc(N(c5ccccc5)c5ccccc5)cc4)cc3c3cc(-c4ccc(N(c5ccccc5)c5ccccc5)cc4)ccc3c2nc1C#N", "nm", 460),
    ("Cc1ccc(-n2c(-c3ccccc3[NH-])[nH+]c3c4ccccc4c4ccccc4c32)cc1", "nm", 363),
    ("CCC1=C(C)C2=Cc3c4ccccc4c4n3[B-](c3ccncc3)(Oc3ccccc3-4)[N+]2=C1C (stereo not given)", "nm", 629),
    ("COc1ccc(C2=[N+]3C(=Nc4c5c6cc(OC)c(OC)c(OC)c6c6cc(C(C)(C)C)ccc6c5c(-c5ccc(OC)cc5)n4[B-]3(F)F)c3c2c2ccc(C(C)(C)C)cc2c2c(OC)c(OC)c(OC)cc32)cc1", "nm", 745),
    ("CN(CC(O)c1cccc(O)c1)c1ccc([N+](=O)[O-])c(C2CC(c3cccc4ccccc34)=NN2c2ccccc2)c1 (stereo not given)", "nm", 414),
    ("CCn1c2ccccc2c2cc(-c3cc(-c4ccc5c(c4)c4ccccc4n5CC)nc(-c4ccccc4)n3)ccc21", "nm", 363),
    ("N#Cc1c(-n2c3ccc(Br)cc3c3cc(Br)ccc32)c(-n2c3ccc(Br)cc3c3cc(Br)ccc32)c(C#N)c(-n2c3ccc(Br)cc3c3cc(Br)ccc32)c1-n1c2ccc(Br)cc2c2cc(Br)ccc21", "nm", 339),
    ("CC(C)[Si](C#Cc1c2ccccc2c(C#Cc2c3ccccc3c(C#Cc3c4ccccc4c(C#Cc4c5ccccc5c(C#Cc5c6ccccc6c(C#Cc6c7ccccc7c(C#C[Si](C(C)C)(C(C)C)C(C)C)c7ccccc67)c6ccccc56)c5ccccc45)c4ccccc34)c3ccccc23)c2ccccc12)(C(C)C)C(C)C", "nm", 589),
    ("CN(C)c1ccc(C2=Nc3scc(-c4ccccc4)[n+]3[B-](F)(F)O2)cc1", "nm", 409),
    ("CCn1c2ccccc2c2cc(-c3cc(-c4ccc5c(c4)c4ccccc4n5CC)nc(N4CCCCC4)n3)ccc21", "nm", 369),
    ("Cc1cc(C(F)(F)F)nc2c1ccc1nc(-c3ccc(Cl)cc3)cn12", "nm", 375.2),
    ("CCOC(=O)C(C(=O)OCC)C1=[N+]2C(=C(c3ccc(C)cc3)c3ccc(C(C(=O)OCC)C(=O)OCC)n3[B-]2(F)F)C=C1", "nm", 514),
    ("CN(C)c1ccc(/C=C2\\CC/C(=C\\c3ccc(C#N)cc3)C2=O)cc1", "nm", 455),
]
